Molecular target: Induced myeloid leukemia cell differentiation protein Mcl-1 (Homo sapiens)
Experiment: blockers of Bid binding to Mcl-1 – biochemical, TR-FRET, dose response (AID 1418)
Details: Mcl-1/Bid peptide binding, TR-FRET (europium/Dy647), 2 hr
Calls of active or inactive are those of the source. How the calls were made is not given here.
Valid outcomes are listed here; reply with one: active, inactive

Here are 5 compounds together with their reported answers.
>>> df
                                   compound  label_class
0             CSc1ccccc1NC(=O)CNCCCN1CCOCC1     inactive
1  COc1ccccc1NC(=O)c1sc2ncn(Cc3ccc(C)cc3)c(=O)c2c1C       active
2                 CNC(=S)Nc1cc(C)ccc1OC(F)F     inactive
3  COc1cccc(CNC(=O)C2CCN(S(=O)(=O)N3CCCCC3)CC2)c1     inactive
4       COc1ccccc1CN1CCN(C(=O)Cc2ccccc2)CC1     inactive

Here's the next entry for you.
Task: Identify the outcome logged in this assay for the compound shown: Cc1cc(=O)c2ccc(C(F)(F)F)cc2[nH]1
Result: inactive

----------
Target: Induced myeloid leukemia cell differentiation protein Mcl-1 (Homo sapiens) (UniProt Q07820)
Sequence (Q07820 whole entry, looked up): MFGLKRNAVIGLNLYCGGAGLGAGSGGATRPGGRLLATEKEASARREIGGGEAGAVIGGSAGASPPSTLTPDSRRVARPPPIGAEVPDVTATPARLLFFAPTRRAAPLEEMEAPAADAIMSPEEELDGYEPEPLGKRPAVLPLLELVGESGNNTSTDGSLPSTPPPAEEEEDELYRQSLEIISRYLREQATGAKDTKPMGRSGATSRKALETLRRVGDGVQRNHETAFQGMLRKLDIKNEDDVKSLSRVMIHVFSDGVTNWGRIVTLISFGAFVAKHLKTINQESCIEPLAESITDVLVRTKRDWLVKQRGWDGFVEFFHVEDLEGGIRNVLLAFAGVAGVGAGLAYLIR
Assay: blockers of Bid binding to Mcl-1 – biochemical, TR-FRET, dose response (AID 1418)
Conditions: Mcl-1/Bid peptide binding, TR-FRET (europium/Dy647), 2 hr
Active and inactive are the calls of the source. How the calls were made is not given here.
Valid outcomes are listed here; reply with one: label 1 (active), label 0 (inactive)

Here are 6 compounds together with their reported answers.
>>> df
                                   compound  label_class
0                      O=P(O)(O)C#Cc1ccccc1      label 0
1  C=CCc1ccc(OCCOCCOc2cccc3ccc(C)nc23)c(OC)c1      label 0
2  Cc1cccc2cc(/C=N/NC(=O)CN3CCOCC3)c(Cl)nc12      label 0
3  Cc1ccc(C(=O)NNC(=O)CCC(=O)Nc2cc(C)on2)cc1      label 0
4                   C=CCNCCCOc1ccc(Cl)cc1Br      label 0
5    COc1ccc2[nH]c3c(=O)n(Cc4ccco4)cnc3c2c1      label 0

Task: Identify the outcome logged in this assay for the compound shown: O=C(N=Nc1c(O)[nH]c2ccc([N+](=O)[O-])cc12)c1cc(-c2ccccc2Cl)nc2ccccc12
Result: label 1

Task: Identify the outcome logged in this assay for the compound shown: CC(C)(C)C(O)C(Oc1ccc(Cl)cc1)n1cncn1 (stereo not drawn)
Result: label 0

Task: Identify the outcome logged in this assay for the compound shown: O=C1NC(CCc2ccccc2)C(=O)N1Cc1ccccc1Cl (stereo not drawn)
Result: label 0

Task: Identify the outcome logged in this assay for the compound shown: CCOc1ccc(NC(=O)c2oc3ccccc3c2NC(=O)CC)cc1
Result: label 0

Task: Identify the outcome logged in this assay for the compound shown: COc1ccc(-c2csc(NC(=S)NC(=O)/C=C/c3ccco3)n2)cc1OC
Result: label 0

Task: Identify the outcome logged in this assay for the compound shown: CSc1nc(SCCO)c2sc3nc(-c4ccco4)c4c(c3c2n1)CC(C)(C)OC4
Result: label 1

Task: Identify the outcome logged in this assay for the compound shown: COCC(=O)Nc1ncc(S(=O)(=O)c2ccc([N+](=O)[O-])cc2)s1
Result: label 0

Task: Identify the outcome logged in this assay for the compound shown: Cc1ccc(S(=O)(=O)N(C)CC(O)Cn2c3ccccc3c3ccccc32)cc1 (stereo not drawn)
Result: label 0

Task: Identify the outcome logged in this assay for the compound shown: COc1ccc2nc(NC(=O)c3cccc(-c4cc5ccccc5oc4=O)c3)sc2c1
Result: label 1

Task: Identify the outcome logged in this assay for the compound shown: Cc1nnc(SCc2cc(=O)oc3ccc4ccccc4c23)n1Cc1ccccc1
Result: label 0

Task: Identify the outcome logged in this assay for the compound shown: COc1ccc(C(=O)Nc2ccc3c(c2)C(=O)c2ccccc2C3=O)cc1OC
Result: label 1

Task: Identify the outcome logged in this assay for the compound shown: CCCC(=O)Nc1ccc2oc(-c3cccnc3)nc2c1
Result: label 0

Task: Identify the outcome logged in this assay for the compound shown: O=C1C(=Cc2cccn2-c2ccccc2)C(=O)c2ccccc21
Result: label 1

Task: Identify the outcome logged in this assay for the compound shown: CCc1cccc(CC)c1NC(=S)N1CCn2cccc2C1c1cccnc1 (stereo not drawn)
Result: label 0

Task: Identify the outcome logged in this assay for the compound shown: CCN(CC)c1ccc2cc(-c3nc4ccccc4[nH]3)c(=O)oc2c1
Result: label 1

Task: Identify the outcome logged in this assay for the compound shown: COc1ccc(CCNC(=O)c2ccc(=O)[nH]n2)cc1OC
Result: label 0

Task: Identify the outcome logged in this assay for the compound shown: COc1cccc(CNC(=O)CSCc2cnn(-c3ccccc3)c2-n2cccc2)c1OC
Result: label 0

Each recorded value in this set is attributed to PubChem BioAssay AID1418.
